- methodSummary: Pharmacokinetic evaluation in plasma after IV and PO administration
- Type: in vivo
- testContext: mouse, female Balb/c mice, PO 2 mg/kg, read-out: MRT0-last
measurementKind: MRT last (h)

>  <compound>
C[C@H]1COC2(CCC2)CN1c1nc(N2CCOC[C@@H]2C)c2ccc(-c3cccc(C(N)=O)c3)nc2n1 [Embodiment 35]

>  <measurementKind>
MRT last

>  <valueObserved>
1.98

$$$$
>  <compound>
CNC(=O)c1cccc(-c2ccc3c(N4CCOC[C@@H]4C)nc(N4CCOC[C@@H]4C)nc3n2)c1 [AZD2014, reference compound]

>  <measurementKind>
MRT last

>  <valueObserved>
1.95

$$$$
>  <compound>
CNC(=O)c1cc(-c2ccc3c(N4CCOC[C@@H]4C)nc(N4CCOC5(CC5)C4)nc3n2)ccc1OC [Embodiment 55]

>  <measurementKind>
MRT last

>  <valueObserved>
1.86

$$$$
